# Kd per record follows
# target of assay: Human IL-17A (R&D Systems, cat #317-IL-050/CF) (UniProt Q16552 20-155)
# Sequence (Q16552 20-155): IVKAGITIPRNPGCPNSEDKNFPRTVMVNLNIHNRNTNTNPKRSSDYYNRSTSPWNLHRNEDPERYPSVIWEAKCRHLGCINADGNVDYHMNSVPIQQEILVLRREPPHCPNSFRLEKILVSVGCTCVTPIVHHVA
# method: BIAcore
Report as a plain number; the unit nM is understood.

The cases that follow already have their Kd on record.
Q: Give its Kd value. Item: YW278.15.3 (antibody, V domains shown) VH: EVQLVESGGGLVQPGGSLRLSCAASGFTFTDYDISWVRQAPGKGLEWVASISPSDGYTYYADSVKGRFTISADTSKNTAYLQMNSLRAEDTAVYYCARYLYWSYVMDYWGQGTLVTVSS VL: DIQMTQSPSSLSASVGDRVTITCRASQVISSSLAWYQQKPGKAPKLLIYGASFFYSGVPSRFSGSGSGTDFTLTISSLQPEDFATYYCQQHNDLPLTFGQGTKVEIKR
Result: 0.0242

Q: Give its Kd value. Item: YW279.1.22 (antibody, V domains shown) VH: EVQLVESGGGLVQPGGSLRLSCAASGFSFPSYFISWVRQAPGKGLEWVSMIYPVSGATVYADSVKGRFTISADTSKNTAYLQMNSLRAEDTAVYYCAREGYYYSTSIKYYPWFDYWGQGTLVTVSS VL: DIQMTQSPSSLSASVGDRVTITCRASQSISSYLAWYQQKPGKAPKLLIYGASSRASGVPSRFSGSGSGTDFTLTISSLQPEDFATYYCQQRYSLPITFGQGTKVEIKR
Result: 0.118

Q: Give its Kd value. Item: YW278.15.9 (antibody, V domains shown) VH: EVQLVESGGGLVQPGGSLRLSCAASGFTFTDYDISWVRQAPGKGLEWVASIDPYEGYTYYADSVKGRFTISADTSKNTAYLQMNSLRAEDTAVYYCARYLYWSYVMDYWGQGTLVTVSS VL: DIQMTQSPSSLSASVGDRVTITCRASQDVSTAVAWYQQKPGKAPKLLIYSASFLYSGVPSRFSGSGSGTDFTLTISSLQPEDFATYYCQQSQNPQTTFGQGTKVEIKR
Result: 0.0155

Attention now turns to another entry.
Q: Give its Kd value. Item: YW279.1.21 (antibody, V domains shown) VH: EVQLVESGGGLVQPGGSLRLSCAASGFSFTSYMMSWVRQAPGKGLEWVSTIYPESGATDYADSVKGRFTISADTSKNTAYLQMNSLRAEDTAVYYCAREGYYYSTSIKYYPWFDYWGQGTLVTVSS VL: DIQMTQSPSSLSASVGDRVTITCRASQSISSYLAWYQQKPGKAPKLLIYGASSRASGVPSRFSGSGSGTDFTLTISSLQPEDFATYYCQQRYSWHTTFGQGTKVEIKR
Result: 5.09
